Where do the numbers come from? From PubChem BioAssay (Tox21).

- testDetails: qHTS assay to identify small molecule antagonists of the sonic hedgehog signaling (Shh) pathway - cell viability counter screen (AID 1259367); note: nearly all actives have a fitted effect of over 55% in size
- details: NIH/3T3 Gli1-Luc viability, CellTiter-Fluor, 24 h; series mostly up to 92.4 µM
Results filed as inconclusive are left out. Active and inactive are the calls of the source. Calls come from the whole dose curve; as a rule, active = well fitted cell-killing curve with a large enough effect in the repeat runs; inconclusive = weak or mixed curves, or effect the other way; inactive = no such curve, though single readings can be large or run the other way.
Answer with one of the outcomes 1 (yes) = active, 0 (no) = inactive

-- ask What did this assay record as the result for `CC(=O)NNc1ccccc1` ?
-- reply 0 (no)

-- ask Next: CCC(=O)O[C@@H]1C=C2CCC3C(CCC4(C)C3CC[C@@H]4OC(=O)CC)C2CC1 (stereo partly drawn)
-- reply 0 (no)

-- ask Next: `CCOP(=S)(S)OCC`
-- reply 0 (no)

-- ask Next: `CNC(=O)Oc1cccc(N=CN(C)C)c1`
-- reply 0 (no)

-- ask Next: O=C(NCNC(=O)NC1C(=O)NC(=O)N1CO)NC1C(=O)NC(=O)N1CO (stereo not drawn)
-- reply 0 (no)

-- ask Next: `C[C@]12C=CC3=C4CCC(=O)C=C4CC[C@H]3[C@@H]1CC[C@@H]2O`
-- reply 0 (no)

-- ask Next: Cc1cnc(C2=NC(C)(C(C)C)C(=O)N2)c(C(=O)O)c1 (stereo not drawn)
-- reply 0 (no)

-- ask Next: `O=[N+]([O-])/C=C/c1ccccc1`
-- reply 0 (no)

-- ask Next: `C=CCSSCC=C`
-- reply 0 (no)

-- ask Next: `Cc1nnc(-c2ccccc2)c(=O)n1N`
-- reply 0 (no)

-- ask Next: `Nc1cccc2ccccc12`
-- reply 0 (no)

-- ask Next: `CCC1(CC)C(=O)NC(=O)NC1=O`
-- reply 0 (no)

-- ask Next: `CCCCCl`
-- reply 0 (no)

-- ask Next: COC1CC(=C(c2cccs2)c2cccs2)C[N+](C)(C)C1 (stereo not drawn)
-- reply 0 (no)

-- ask Next: `O=S(=O)(c1ccccc1)c1ccccc1`
-- reply 0 (no)

-- ask Next: CCCC[P+](CC)(CCCC)CCCC (tested in a mixture with another compound)
-- reply 0 (no)

-- ask Next: `CCC[N+](CCC)(CCC)CCC`
-- reply 0 (no)

-- ask Next: `O=C(O)C(F)(F)C(F)(F)C(F)(F)C(F)(F)C(F)(F)F`
-- reply 0 (no)

-- ask Next: `CN(C1CCCCC1)C1CCCCC1`
-- reply 0 (no)

-- ask Next: `C=C(C)C(=O)OCCCCOC(=O)C(=C)C`
-- reply 0 (no)

-- ask Next: CC(Oc1cc(Cl)c(Cl)cc1Cl)C(=O)O (stereo not drawn)
-- reply 0 (no)

-- ask Next: `O=C1NC(=O)C(=O)C(=O)N1`
-- reply 0 (no)

-- ask Next: CCOP(=S)(OCC)Oc1ccc(S(C)=O)cc1 (stereo not drawn)
-- reply 0 (no)

-- ask Next: `Nc1ccc2c(c1)Cc1ccccc1-2`
-- reply 0 (no)

-- ask Next: `O=C(O)C(F)(F)C(F)(F)C(F)(F)C(F)(F)C(F)(F)C(F)(F)C(F)(F)C(F)(F)F`
-- reply 0 (no)

-- ask Next: COc1cc(CC(C)N)c(OC)cc1Br (stereo not drawn)
-- reply 0 (no)

-- ask Next: `Cc1nc(N(C)C)nc(OC(=O)N(C)C)c1C`
-- reply 0 (no)

-- ask Next: `Clc1ccccc1`
-- reply 1 (yes)
